All figures here come from ChEMBL document CHEMBL1201862.

Measurement notes: cells
Type: functional
Active and inactive are the calls of the source.
IC50 values by entry

Consider the reported IC50 for these molecules:
- Record smiles: "Clc1ccc(OCCOCCN2CCc3ccccc3C2)c(Cl)c1"
  IC50: "18.6 µM (active)"
- Record smiles: "Cc1cc(NC(=O)c2sccc2C)n(-c2nc3ccccc3[nH]2)n1"
  IC50: "4.09 µM (active)"
- Record smiles: "COc1cc(CNCCc2c[nH]c3ccccc23)ccc1OCc1ccc(F)cc1"
  IC50: "10.7 µM (active)"
- Record smiles: "CCCCCOc1ccc(Br)cc1/C(C)=N/NC1=NCCN1"
  IC50: "21.4 µM (active)"

With those in mind, consider the next molecule.
So what does the record say about IC50 for Fc1ccc(-c2ccc(CNCc3ccccn3)o2)cc1Cl ?
4.34 µM (active)

====

Assay target: Cytochrome P450 2C9 (Homo sapiens)
Sequence (P11712 whole entry): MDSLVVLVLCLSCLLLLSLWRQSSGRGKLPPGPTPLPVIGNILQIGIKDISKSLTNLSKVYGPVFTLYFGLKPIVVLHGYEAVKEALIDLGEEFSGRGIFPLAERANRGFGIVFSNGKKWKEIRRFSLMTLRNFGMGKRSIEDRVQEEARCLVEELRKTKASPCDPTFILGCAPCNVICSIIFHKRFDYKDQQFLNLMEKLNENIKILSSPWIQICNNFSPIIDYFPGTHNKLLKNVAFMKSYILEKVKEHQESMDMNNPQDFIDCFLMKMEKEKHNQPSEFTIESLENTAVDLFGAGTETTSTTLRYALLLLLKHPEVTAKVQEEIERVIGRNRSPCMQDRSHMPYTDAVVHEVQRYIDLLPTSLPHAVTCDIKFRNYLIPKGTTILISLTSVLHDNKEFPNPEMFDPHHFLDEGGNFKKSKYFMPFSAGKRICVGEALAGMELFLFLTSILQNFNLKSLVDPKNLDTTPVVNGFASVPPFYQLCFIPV
# key: entry, value: AC50

- Compound: "C=C(C)COc1ccc2c(c1)CCC1C2CC[C@]2(C)C(=O)/C(=N/O)CC12 (stereo partly drawn)"
  Experimental result: "3.16 µM (inconclusive)"
- Compound: "CCOc1nc(NCCN2CCOCC2)nc(Nc2ccc(C)cc2)n1"
  Experimental result: "11.2 µM (inconclusive)"
- Compound: "CN(C)/C=N/c1ccc2nn(-c3ccccc3)nc2c1"
  Experimental result: "15.8 µM (inconclusive)"
- Compound: "CCCCC1=NN2C(=N)CC(=O)N=C2S1"
  Experimental result: "2.51 µM (inconclusive)"
- Compound: "COc1cccc(-c2cc(NCCc3c[nH]c4ccc(OC)cc34)ncn2)c1"
  Experimental result: "1.58 µM (inconclusive)"
- Compound: "C/C(N)=C(/C#N)C(=O)CSc1nnc(COc2cc(C)ccc2C)o1"
  Experimental result: "7.08 µM (inconclusive)"
- Compound: "COc1cc(CNCCN2CCOCC2)ccc1OCc1ccccc1Cl"
  Experimental result: "7.94 µM (inconclusive)"
- Compound: "COc1ccc(CCN(C)Cc2ccc(OCc3ccccc3)c(OC)c2)cc1OC"
  Experimental result: "15.8 µM (inconclusive)"

Read the next record carefully.
Lab note: need AC50 with Cytochrome P450 2C9 (Homo sapiens) for entry COc1ccc(-n2c(=O)c(C)nc3cnc(Nc4ccccc4)nc32)cc1 , please look it up.
20 µM (inconclusive)

====

Assay target: FAD-linked sulfhydryl oxidase ALR (Homo sapiens, UniProt P55789)
Sequence (P55789 whole entry): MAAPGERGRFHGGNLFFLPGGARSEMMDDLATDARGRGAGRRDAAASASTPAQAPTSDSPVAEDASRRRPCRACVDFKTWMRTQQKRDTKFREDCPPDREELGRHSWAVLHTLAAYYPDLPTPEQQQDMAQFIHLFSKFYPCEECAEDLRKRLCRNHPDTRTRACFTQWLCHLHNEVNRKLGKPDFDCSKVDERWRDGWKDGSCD
Measurement notes: inhibitors of human ALR sulfhydryl oxidase, dose response, biochemical, H2O2 detection, luminescence, cherry-pick (AID 493248)
The source made the active and inactive calls.
Metric name: AC50

- Compound: "CCn1c(S)nnc1-c1ccc2[nH]c(C)c(C)c2c1"
  AC50: "2.49 µM (active)"
- Compound: "CCC(=O)Nc1ccc(SC#N)cc1C"
  AC50: "0.497 µM (active)"
- Compound: "COc1ccc(S(=O)(=O)N/N=C(/C)c2ccncc2)c(OC)c1"
  AC50: "0.832 µM (active)"
- Compound: "Nc1nc2ccc(-c3nc4ccccc4o3)cc2s1"
  AC50: "2.44 µM (active)"
- Compound: "CCN(CC)C(=O)CC(c1ccc(N(C)C)cc1)c1c(OC)cc(OC)c2ccc(=O)oc12 (stereo not drawn)"
  AC50: "3.89 µM (active)"
- Compound: "CC(=O)Nc1ccc(SCCN2CC[C@@H](C(C)(C)C)CCC2=O)cc1"
  AC50: "0.25 µM (active)"

Recorded AC50 for COc1ccccc1NS(=O)(=O)c1ccc(C)c(C(=O)N2CCN(c3ccc(O)cc3)CC2)c1 , please?
0.022 µM (active)

Could you share which AC50 value was measured for CCC(/C=C1\Sc2ccc(OC)cc2N1CCCS(=O)(=O)[O-])=C\c1sc2ccc(OC)cc2[n+]1CC ?
8.75 µM (active)

Sample CNC(C)Cc1ccccc1Sc1ccc(O)cc1 (stereo not drawn) — what was its AC50?
3.15 µM (active)

What value of AC50 has been recorded for this entry: CN1CCN(c2ccc(Nc3ccnc4cc(Cl)ccc34)cc2)CC1
5.43 µM (active)

====

Reported EC50 is given for each of the following molecules.
Assay target: Oxysterols receptor LXR-beta (Homo sapiens, UniProt P55055)
Sequence (P55055 whole entry, the tested form may be a part): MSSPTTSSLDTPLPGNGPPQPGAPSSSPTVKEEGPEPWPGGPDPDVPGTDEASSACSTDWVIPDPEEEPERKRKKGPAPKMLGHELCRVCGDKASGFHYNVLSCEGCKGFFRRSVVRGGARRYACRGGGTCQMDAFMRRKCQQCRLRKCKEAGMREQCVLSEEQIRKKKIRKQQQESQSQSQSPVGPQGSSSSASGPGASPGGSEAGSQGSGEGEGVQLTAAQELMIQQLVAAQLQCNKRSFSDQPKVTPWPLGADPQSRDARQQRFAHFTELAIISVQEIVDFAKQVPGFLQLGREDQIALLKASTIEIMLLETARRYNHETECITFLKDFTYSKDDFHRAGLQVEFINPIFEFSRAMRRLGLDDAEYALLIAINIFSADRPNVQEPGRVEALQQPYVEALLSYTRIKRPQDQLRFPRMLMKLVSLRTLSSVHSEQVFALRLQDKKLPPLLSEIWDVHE
Measurement notes: LXR agonists, Gal4 luciferase reporter, dose response, counter-screen for ssDAF-12 agonist project, cell-based, luminescence, HEK293, S. stercoralis campaign (AID 720737)
Type: functional
Condition parameters: read-out: IC50 (the source's name)
The source made the active and inactive calls.

Can you share its EC50? I mean this molecule: Cc1c(C(=O)Nc2nccs2)oc2ccccc12
> 67.6 µM (inactive)

Using the record for O=[N+]([O-])c1ccc2oc(-c3cccc(O)c3)nc2c1 , report its EC50.
> 67.5 µM (inactive)

Give its EC50 value. Item: CCCCCCC1(C)N=C(S)N(c2ccccc2)N1 (centres undefined)
> 67.6 µM (inactive)

Param item = C(=N\Nc1nc2ccccc2s1)/c1ccc2c(c1)OCO2 ; retrieve measured EC50.
> 67.5 µM (inactive)

====

Assay target: Aminopeptidase N (Plasmodium falciparum FcB1/Columbia, UniProt O96935)
Sequence (O96935 whole entry): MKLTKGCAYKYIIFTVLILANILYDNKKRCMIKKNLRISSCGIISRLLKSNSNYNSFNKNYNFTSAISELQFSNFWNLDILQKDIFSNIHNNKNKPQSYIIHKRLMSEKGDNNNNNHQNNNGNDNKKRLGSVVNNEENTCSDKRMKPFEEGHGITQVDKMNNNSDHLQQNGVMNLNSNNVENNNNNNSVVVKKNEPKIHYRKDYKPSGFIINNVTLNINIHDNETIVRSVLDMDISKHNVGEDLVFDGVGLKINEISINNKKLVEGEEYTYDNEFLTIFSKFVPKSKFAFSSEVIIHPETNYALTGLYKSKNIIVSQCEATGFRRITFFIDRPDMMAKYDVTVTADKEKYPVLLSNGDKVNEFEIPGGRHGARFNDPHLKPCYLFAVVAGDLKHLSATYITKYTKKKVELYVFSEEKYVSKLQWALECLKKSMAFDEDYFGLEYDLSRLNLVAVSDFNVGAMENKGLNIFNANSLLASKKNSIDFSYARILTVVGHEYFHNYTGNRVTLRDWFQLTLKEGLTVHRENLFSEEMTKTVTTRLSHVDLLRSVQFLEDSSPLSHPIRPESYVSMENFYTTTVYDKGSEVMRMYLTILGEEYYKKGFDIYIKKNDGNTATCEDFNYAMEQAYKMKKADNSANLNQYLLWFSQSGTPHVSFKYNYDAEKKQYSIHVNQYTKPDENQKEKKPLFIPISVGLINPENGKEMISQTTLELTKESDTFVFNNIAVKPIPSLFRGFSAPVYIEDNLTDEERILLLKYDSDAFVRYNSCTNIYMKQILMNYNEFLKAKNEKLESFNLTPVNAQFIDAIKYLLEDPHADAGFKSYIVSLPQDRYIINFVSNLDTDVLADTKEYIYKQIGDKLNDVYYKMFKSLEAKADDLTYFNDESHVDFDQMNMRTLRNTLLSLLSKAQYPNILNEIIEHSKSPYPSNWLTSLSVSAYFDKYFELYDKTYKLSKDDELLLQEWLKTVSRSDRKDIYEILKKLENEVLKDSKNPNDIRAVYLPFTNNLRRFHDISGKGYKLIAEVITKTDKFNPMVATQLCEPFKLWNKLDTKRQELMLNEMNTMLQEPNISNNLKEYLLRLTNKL
Measurement notes: P. falciparum M1AAP inhibitors, biochemical, fluorogenic H-Leu-NHMec substrate, 1536-well (AID 1445)
Parameters: species or system Plasmodium falciparum 3D7, 3D7
The source made the active and inactive calls.
IC50 values for the molecules below.

- Molecule: "CC1(C)CC(=O)C2=C(C1)c1c(ccc3ccccc13)NC2c1cc([N+](=O)[O-])cc([N+](=O)[O-])c1O (stereo unspecified)"
  Experimental result: "29.4 µM (active)"

Now turn to the next molecule.
Form field - read-out: IC50; system: Aminopeptidase N (Plasmodium falciparum FcB1/Columbia, UniProt O96935); submitted item: Cc1ccc(-c2n[nH]c3c2C(c2cccc(O)c2)N(c2ccc(C(=O)O)cc2)C3=O)cc1 (stereo unspecified)
36.6 µM (active)

====

Assay target: Fatty acid synthase (Homo sapiens, UniProt P49327)
Sequence (P49327 whole entry, the tested form may be a part): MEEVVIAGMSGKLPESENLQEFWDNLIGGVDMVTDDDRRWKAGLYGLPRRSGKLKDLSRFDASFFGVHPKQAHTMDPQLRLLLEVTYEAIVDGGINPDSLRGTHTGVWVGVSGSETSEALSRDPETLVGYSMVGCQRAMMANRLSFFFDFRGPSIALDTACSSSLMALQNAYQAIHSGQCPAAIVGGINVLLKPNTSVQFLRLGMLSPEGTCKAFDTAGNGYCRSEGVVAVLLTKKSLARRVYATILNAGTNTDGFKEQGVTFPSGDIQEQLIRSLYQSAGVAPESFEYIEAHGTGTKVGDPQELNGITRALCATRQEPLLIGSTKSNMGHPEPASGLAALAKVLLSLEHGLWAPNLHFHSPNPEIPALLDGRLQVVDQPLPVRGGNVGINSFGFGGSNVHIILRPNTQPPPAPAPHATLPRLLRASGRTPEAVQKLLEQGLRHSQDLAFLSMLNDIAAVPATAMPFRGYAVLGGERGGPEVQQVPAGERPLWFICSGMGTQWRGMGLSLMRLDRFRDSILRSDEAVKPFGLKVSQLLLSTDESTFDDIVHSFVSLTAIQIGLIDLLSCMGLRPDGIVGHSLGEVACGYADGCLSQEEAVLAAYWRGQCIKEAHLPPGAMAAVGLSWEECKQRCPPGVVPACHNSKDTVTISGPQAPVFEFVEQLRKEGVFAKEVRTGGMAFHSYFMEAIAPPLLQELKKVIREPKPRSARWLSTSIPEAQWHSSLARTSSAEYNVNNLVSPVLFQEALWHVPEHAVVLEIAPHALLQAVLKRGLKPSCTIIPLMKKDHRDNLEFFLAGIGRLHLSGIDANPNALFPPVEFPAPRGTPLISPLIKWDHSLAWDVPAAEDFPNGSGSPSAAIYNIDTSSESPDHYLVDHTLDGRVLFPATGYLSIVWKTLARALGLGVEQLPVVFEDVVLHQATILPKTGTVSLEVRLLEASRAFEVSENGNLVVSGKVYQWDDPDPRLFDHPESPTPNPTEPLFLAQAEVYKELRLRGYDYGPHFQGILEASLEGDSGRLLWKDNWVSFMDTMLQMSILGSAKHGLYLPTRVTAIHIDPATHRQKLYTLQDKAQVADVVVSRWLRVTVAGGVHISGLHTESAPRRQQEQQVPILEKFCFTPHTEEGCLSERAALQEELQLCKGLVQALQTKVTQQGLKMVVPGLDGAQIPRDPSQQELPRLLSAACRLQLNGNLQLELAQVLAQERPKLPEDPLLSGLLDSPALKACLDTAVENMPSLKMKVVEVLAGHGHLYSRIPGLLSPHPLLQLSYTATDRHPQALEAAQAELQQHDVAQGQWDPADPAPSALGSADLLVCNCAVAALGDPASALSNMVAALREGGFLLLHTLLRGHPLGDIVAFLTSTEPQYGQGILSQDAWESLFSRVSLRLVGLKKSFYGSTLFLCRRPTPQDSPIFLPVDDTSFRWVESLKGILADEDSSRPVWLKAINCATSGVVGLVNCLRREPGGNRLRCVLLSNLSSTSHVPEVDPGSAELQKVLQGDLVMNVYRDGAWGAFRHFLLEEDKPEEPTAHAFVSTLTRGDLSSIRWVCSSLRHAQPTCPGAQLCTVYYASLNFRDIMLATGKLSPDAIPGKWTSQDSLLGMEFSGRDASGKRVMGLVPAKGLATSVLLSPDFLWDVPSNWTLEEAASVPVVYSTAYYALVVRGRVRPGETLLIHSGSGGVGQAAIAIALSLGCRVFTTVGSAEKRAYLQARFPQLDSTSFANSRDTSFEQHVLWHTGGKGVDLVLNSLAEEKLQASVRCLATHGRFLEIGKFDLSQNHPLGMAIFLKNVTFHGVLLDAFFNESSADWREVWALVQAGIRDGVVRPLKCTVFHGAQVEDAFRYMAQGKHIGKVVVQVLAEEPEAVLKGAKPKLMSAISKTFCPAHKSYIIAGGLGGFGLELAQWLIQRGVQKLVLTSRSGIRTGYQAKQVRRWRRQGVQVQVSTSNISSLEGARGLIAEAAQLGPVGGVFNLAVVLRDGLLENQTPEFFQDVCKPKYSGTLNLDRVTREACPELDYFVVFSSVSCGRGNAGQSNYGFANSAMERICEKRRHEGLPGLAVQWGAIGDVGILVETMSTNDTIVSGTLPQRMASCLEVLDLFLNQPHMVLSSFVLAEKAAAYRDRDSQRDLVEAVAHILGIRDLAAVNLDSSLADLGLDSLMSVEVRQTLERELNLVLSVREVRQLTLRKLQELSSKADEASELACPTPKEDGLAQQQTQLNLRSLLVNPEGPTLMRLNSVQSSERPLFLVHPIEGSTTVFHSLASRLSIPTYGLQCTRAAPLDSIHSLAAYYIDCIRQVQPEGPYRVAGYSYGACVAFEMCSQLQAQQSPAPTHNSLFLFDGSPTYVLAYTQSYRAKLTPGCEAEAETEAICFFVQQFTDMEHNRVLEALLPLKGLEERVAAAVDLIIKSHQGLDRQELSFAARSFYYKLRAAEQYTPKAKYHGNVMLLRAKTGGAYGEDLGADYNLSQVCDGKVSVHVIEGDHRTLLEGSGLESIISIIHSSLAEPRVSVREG
Measurement notes: FAS thioesterase domain inhibitors, dose response, biochemical, kinetic fluorescence intensity (AID 624326);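 also: rate of fluorescence rise from hydrolysis of a fluorogenic O-methyl fluorescein ester substrate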
Type: functional
Active and inactive are the calls of the source.
Listing of entries alongside the reported IC50.

- Molecule: "Cc1cc(C)c(C#N)c(SC[S+]([O-])Cc2ccc(Cl)cc2)n1 (centres undefined)"
  Assay target: "Fatty acid synthase (Homo sapiens, UniProt P49327)"
  IC50: "5.54 µM (active)"
- Molecule: "C=CCn1cc(C(=O)NCc2ccco2)c(=O)c2cc(S(=O)(=O)N3CCCCCC3)ccc21"
  Assay target: "Fatty acid synthase (Homo sapiens, UniProt P49327)"
  IC50: "7.26 µM (active)"
- Molecule: "O=C(Nc1ccc(C(=O)O)cc1)/C(=C\\c1ccc([N+](=O)[O-])cc1)NC(=O)c1ccc(Br)cc1"
  Assay target: "Fatty acid synthase (Homo sapiens, UniProt P49327)"
  IC50: "1.21 µM (active)"
- Molecule: "O=C(Cn1cc([N+](=O)[O-])ccc1=O)NCC1COc2ccccc2O1 (centres undefined)"
  Assay target: "Fatty acid synthase (Homo sapiens, UniProt P49327)"
  IC50: "11.5 µM (active)"
- Molecule: "O=C(CSc1ccc([N+](=O)[O-])cc1)NCC1CCCCC1"
  Assay target: "Fatty acid synthase (Homo sapiens, UniProt P49327)"
  IC50: "11.9 µM (active)"
- Molecule: "Cc1ccc(NC(=O)CCNC(=O)c2ccc([N+](=O)[O-])cc2)cc1C"
  Assay target: "Fatty acid synthase (Homo sapiens, UniProt P49327)"
  IC50: "9.29 µM (active)"
- Molecule: "O=C(COC(=O)c1cc([N+](=O)[O-])ccc1N1CCOCC1)Nc1cccc(F)c1"
  Assay target: "Fatty acid synthase (Homo sapiens, UniProt P49327)"
  IC50: "0.917 µM (active)"
- Molecule: "CCOC(=O)[C@]12Cc3ccc(C)cc3[C@H]1N(C1CCCCC1)C(=O)c1ccccc12"
  Assay target: "Fatty acid synthase (Homo sapiens, UniProt P49327)"
  IC50: "6.79 µM (active)"

State its IC50 on Fatty acid synthase (Homo sapiens, UniProt P49327): O=[N+]([O-])c1c(NCCCO)cc(Sc2ccc(Cl)cc2)c2nonc12
6.69 µM (active)

====

Assay target: Ubiquitin-conjugating enzyme E2 N (Homo sapiens);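 also: Dose-response confirmation in a TR-FRET assay detecting UBC13-driven polyubiquitin chain formation, inhibition measured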
Sequence (P61088 whole entry): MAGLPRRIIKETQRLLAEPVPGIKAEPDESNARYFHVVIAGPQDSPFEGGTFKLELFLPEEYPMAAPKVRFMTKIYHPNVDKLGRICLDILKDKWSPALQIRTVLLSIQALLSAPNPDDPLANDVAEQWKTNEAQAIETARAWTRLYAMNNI
Assay type: functional
Active and inactive are the calls of the source.
Respond only with the outcome that fits, drawn from 1 for active, -1 for inactive

- Molecule: "CCC(C)[C@H]1CNCCN1CCc1cc(C(F)(F)F)cc(C(F)(F)F)c1 (some centres not stated)"
  Classification: -1

Can you look up the reported call for O=C(CCC(=O)N1CCOc2ccc(Cl)cc21)NCCCN1CCC(Cc2ccccc2)CC1 for me?
-1

What call does the record list for O=C(Nc1ccncc1)C1CCN(S(=O)(=O)c2cccc(C(F)(F)F)c2)CC1 ?
-1
